# Tested on: arteriovenous bypass thrombi
# assayDetails: Antithrombotic activity in vivo: arteriovenous bypass thrombosis in rats
# Parameters: species or system SD rats
# conditionNotes: Rattus norvegicus, po, single gavage 15 mg/kg, vs blank control, read-out: Inhibition rate (thrombus wet weight)
Where a name gives a salt, the structure may show the parent alone.
Reported inhibition at 15 mg/kg values follow for various molecules
assayReadout: inhibition at 15 mg/kg (%)

• CCCOC(=O)c1ccc(OCCn2ccnc2)c(OC)c1 = 45.9
• COc1cc(C(=O)Oc2ccc(C[C@H](N)C(=O)O)cc2)ccc1OCCn1ccnc1.Cl [Example 9, hydrochloride] = 49.4
• COc1cc(C(=O)Oc2ccc(C[C@@H](N)C(=O)O)cc2)ccc1OCCn1ccnc1.Cl [Example 10, hydrochloride] = 47.5
• COc1cc(C(=O)OCOC(=O)OC(C)C)ccc1OCCn1ccnc1 = 53.5
• COc1cc(C(=O)OCCCCCC(=O)O)ccc1OCCn1ccnc1 = 53.3
• COc1cc(C(=O)Nc2ccc(C[C@@H](N)C(=O)O)cc2)ccc1OCCn1ccnc1 [Example 8, hydrochloride] = 48.6
